pIC50: −log10 of the molar value.
Entries with their measured pIC50, system tankyrase 1 (TNKS1) (Homo sapiens, UniProt O95271):

Please review the entries below; each comes with its answer.
{"MOLECULE": "CCc1cccc2c1NC(c1c[nH]nc1-c1ccc(OC)cc1)NC2=O (centres unmarked) [Example 57]", "METRIC": "pIC50", "ENDPOINT_VALUE": "7.70 to 8.30"}
{"MOLECULE": "CN1c2ccccc2C(=O)NC1c1n[nH]nc1-c1ccc(-c2ccc(N3CCOCC3)cc2)cc1 (centres unmarked) [Example 7]", "METRIC": "pIC50", "ENDPOINT_VALUE": "7.30 to 7.70"}

Quote tankyrase 1 (TNKS1) (Homo sapiens, UniProt O95271) pIC50 for entry CN1CCN(Cc2cccc(-c3ccc(-c4n[nH]cc4C4NC(=O)c5ccccc5N4C)cc3)c2)CC1 (centres unmarked) [Example 26] .
7.30 to 7.70

Quote tankyrase 1 (TNKS1) (Homo sapiens, UniProt O95271) pIC50 for entry CCOc1ccc(-c2n[nH]nc2[C@H]2NC(=O)c3cccc(C)c3N2)cc1 [Example 8] .
> 8.30

Quote tankyrase 1 (TNKS1) (Homo sapiens, UniProt O95271) pIC50 for entry CN1c2ccccc2C(=O)NC1c1c[nH]nc1-c1ccc([N+](=O)[O-])cc1 (centres unmarked) [Example 16] .
7.30 to 7.70

Quote tankyrase 1 (TNKS1) (Homo sapiens, UniProt O95271) pIC50 for entry COc1ccc(-c2c[nH]nc2C2NC(=O)c3ccccc3N2C)cc1 (centres unmarked) [Example 86] .
> 8.30

Quote tankyrase 1 (TNKS1) (Homo sapiens, UniProt O95271) pIC50 for entry CN1c2ccccc2C(=O)NC1c1n[nH]nc1-c1ccc(Br)cc1 (centres unmarked) [Example 60] .
7.70 to 8.30

Quote tankyrase 1 (TNKS1) (Homo sapiens, UniProt O95271) pIC50 for entry CN1c2ccccc2C(=O)NC1c1c[nH]nc1-c1ccc(-c2ccnc3[nH]ccc23)cc1 (centres unmarked) [Example 39] .
7.30 to 7.70

Origin of measurements: patent US11566017B2
